Sourced from patent US20260262643A1

Test system: barnyardgrass
Assay: Test C postemergence
Format: in vivo, Echinochloa crusgalli
Conditions: Postemergence, 500 g ai/ha, 10 days, visual 0 to 100 scale (0 no effect, 100 complete control)
The molecules listed here are annotated with their Plant response rating, Barnyardgrass.
READOUT_TYPE: Plant response rating, Barnyardgrass

- MOLECULE: "COc1ccc(-n2cnc(C(C)C)n2)cc1C(=O)N1C[C@H](C)Oc2c(F)cccc21 [Compound 269]"
  OBS_VALUE: 100
- MOLECULE: "C[C@H]1CN(C(=O)c2cccc(-n3cnc(C(C)(C)O)n3)c2)c2cccc(Cl)c2O1 [Compound 169]"
  OBS_VALUE: 70
- MOLECULE: "CC(C)c1ncn(-c2cc(OC(F)F)c(OC(F)F)c(C(=O)N3C[C@H](C)Oc4c(Cl)cccc43)c2)n1 [Compound 150]"
  OBS_VALUE: 10
- MOLECULE: "Cc1cccc2c1O[C@H](C)CN2C(=O)c1cccc(-c2ncn(C(C)C)n2)c1 [Compound 221]"
  OBS_VALUE: 10
